Assay: in vivo
Design: species or system female C3H/HeN mice
Details: mouse, plasma, iv, 40 mg/kg, 40 mg.kg^-1 i.v., 6h after dose, MEAN, read-out: Plasma product Ic concentration
Metric Name: concentration at 6 h
Write the numeric value and follow it with the unit.

Task: Find the recorded concentration at 6 h belonging to `CO[C@H]1C(=O)[C@]2(C)[C@@H](OC)C[C@H]3OC[C@@]3(OC(C)=O)[C@H]2[C@H](OC(=O)c2ccccc2)[C@]2(O)C[C@H](OC(=O)[C@H](O)[C@@H](NC(=O)OC(C)(C)C)c3ccccc3)C(C)=C1C2(C)C` and report it.
Output: 362 ng/mL

Source of measurements: patent EP0982027A1
